# Procedure summary: photoluminescence quantum yield (fraction); solvent given as SMILES
# Condition: in ClC(Cl)Cl
Recorded metric: photoluminescence quantum yield

a. CC1=c2cc3c(cc2=[N+]2C1=Cc1c4ccccc4c(C)n1[B-]2(F)F)C1=Cc2c4ccccc4c(C)n2[B-](F)(F)[N+]1=C3C
b. CC1=CC(C)=[N+]2C1=C(c1ccc3cccnc3n1)c1c(C)cc(C)n1[B-]2(F)F
Q) Which value of photoluminescence quantum yield is smaller, the one for a or the one for b ? Your choice should be expressed through its label.
A) a

A. F[B-]1(F)OC(c2ccc(Br)cc2)=Cc2c3ccccc3c3ccccc3[n+]21
B. c1ccc2c(-c3ccncc3)c3c(nc2c1)-c1cc2c(cc1CC3)-c1nc3ccccc3c(-c3ccncc3)c1CC2
C. CN(C)c1ccc(-c2cc(-c3cccs3)nc(-c3ccccc3)n2)cc1
Q) List from greatest to least photoluminescence quantum yield. Reply format: the labels, ordered as requested.
A) B, C, A
(B: 0.961, C: 0.46, A: 0.152)
